- experimental-details: Displacement of [3H]EK from Opioid receptor delta 1 in guinea pig brain membrane
pKi: −log10 of the molar value.

structure-smiles-string | pKi
O=C(CCC(=O)NCC(=O)NCC(=O)N[C@@H]1CC[C@@]2(O)[C@H]3Cc4ccc(O)c5c4[C@@]2(CCN3CC2CC2)[C@H]1O5)NCC(=O)NCC(=O)N[C@@H]1CC[C@@]2(O)[C@H]3Cc4ccc(O)c5c4[C@@]2(CCN3CC2CC2)[C@H]1O5 | 8.31
O=C(CCC(=O)N[C@@H]1CC[C@@]2(O)[C@H]3Cc4ccc(O)c5c4[C@@]2(CCN3CC2CC2)[C@H]1O5)N[C@@H]1CC[C@@]2(O)[C@H]3Cc4ccc(O)c5c4[C@@]2(CCN3CC2CC2)[C@H]1O5 | 7.92
O=C(CCC(=O)NCC(=O)N[C@@H]1CC[C@@]2(O)[C@H]3Cc4ccc(O)c5c4[C@@]2(CCN3CC2CC2)[C@H]1O5)NCC(=O)N[C@@H]1CC[C@@]2(O)[C@H]3Cc4ccc(O)c5c4[C@@]2(CCN3CC2CC2)[C@H]1O5 | 8.11
CN1CC[C@]23c4c5ccc(O)c4O[C@@H]2[C@H](NC(=O)CCC(=O)N[C@@H]2CC[C@]4(O)[C@H]6Cc7ccc(O)c8c7[C@@]4(CCN6C)[C@@H]2O8)CC[C@]3(O)[C@H]1C5 | 6.70
